Numbers sourced from paper PMC9866728.

experiment-description: Recovery over time from exposure to cell culture media without cells (GC-MS/MS)
Type: physicochemical
condition-info: MAF (400 ng/mL each PAH); one phase decay fit of nominal recovery (text: ng/mL)
measure-name: Plateau

>>> obs_value("c1ccc2ccccc2c1")
38.47
>>> obs_value("c1ccc2c(c1)Cc1ccccc1-2")
50.15
>>> obs_value("C1=Cc2cccc3cccc1c23")
41.99
>>> obs_value("c1ccc2c(c1)cc1ccc3cccc4ccc2c1c34 [Benzo[a]pyrene]")
203.9
>>> obs_value("c1ccc2cc3c(cc2c1)-c1cccc2cccc-3c12 [Benzo[k]fluoranthene]")
124.5
>>> obs_value("c1ccc2c(c1)ccc1ccccc12")
48.89
>>> obs_value("Cc1cccc2ccccc12")
37.1
>>> obs_value("c1ccc2cc3ccccc3cc2c1")
49.04
>>> obs_value("c1ccc2c(c1)-c1cccc3cccc-2c13")
86.09
>>> obs_value("c1cc2c3c(cccc3c1)CC2")
44.72
